# System: NCI-H522 lung
# EXPERIMENT: NCI-60 one-dose screen, 48 h (100 = growth as untreated, 0 = no growth, -100 = all killed)
# PROTOCOL CONDITIONS: 10 µM
This is part of a sample that, as a whole, favours compounds with a hit. Of some 83,000 tested, about 20% had one in any assay.
Assign a class from recorded growth; defined classes: lower bin: < 20%; middle bin: ≥ 20% and < 90%; upper bin: ≥ 90%

Below are worked cases with known answers.
COCCOC(=O)NC(=O)Nc1ccc(C(=O)c2ccc(Cl)cc2)cc1; lower bin
O=S(=O)(NCl)c1ccccc1; upper bin
COC(=O)c1c(C)nc(Nc2nc3ccccc3s2)nc1-c1ccc(Cl)cc1Cl; upper bin
COc1ccc(-c2oncc2-c2cc(OC)c3c(c2)OCO3)cc1; lower bin
Cc1cc(Cl)ccc1Nc1nc(C(F)(F)F)ccc1C(=O)N/N=C/c1ccccc1Cl; lower bin

-- ask Class label required: COc1ccc(-c2csc(NC(=O)CO[N+](=O)[O-])n2)cc1
-- reply lower bin

====

# System: SF-268 CNS
# EXPERIMENT: NCI-60 one-dose screen, 48 h (100 = growth as untreated, 0 = no growth, -100 = all killed)
# PROTOCOL CONDITIONS: 10 µM
This is part of a sample that, as a whole, favours compounds with a hit. Of some 83,000 tested, about 20% had one in any assay.
# growth listing for each entry below
The response must be a number in % with no trailing unit.

CCn1nc(-c2ccccn2)c2cccnc2c1=S; 94.8

-- ask Given the molecule Cc1ccc(S(=O)(=O)Nc2cccc3[nH]c(C(F)(F)F)nc23)cc1 , what is its reported growth?
-- reply 60

-- ask Using the record for Cc1nc(N)sc1Sc1nc2ccc(Cl)cc2c(=O)n1-c1ccc(Oc2ccccc2)cc1 , report its growth.
-- reply 107

====

# Test system: SF-268 CNS
# EXPERIMENT: NCI-60 one-dose screen, 48 h (100 = growth as untreated, 0 = no growth, -100 = all killed)
# PROTOCOL CONDITIONS: 10 µM
The panel holds about 83,000 compounds, 20% with a hit somewhere; the sample as a whole holds those more often.
Consider the following partition of reported growth into named classes: 1 = under 40%, 2 = from 40% up to 90%, 3 = 90% and over

Worked examples, 6 compounds total:
COc1ccc(/C=C(\c2cc(OC)c(OC)c(OC)c2)c2nnc(-c3cccs3)o2)cc1; 2
OC(CNC1CCCC1)Cn1c2ccccc2c2ccccc21 (stereo not drawn); 2
COc1ccc(-c2nc(SCC(=O)c3ccc(Br)cc3)[nH]c(=O)c2C#N)cc1; 3
CCOC(=O)C(CCC1=NC(C)(C)CC(C)O1)C(=O)OCC (stereo not drawn); 3
Nc1ncc(-c2ccc(C(F)(F)F)cc2)c(NC2CCCCCC2)n1; 2
Fc1ccc(-c2cc(C(Cl)Cl)no2)cc1; 3

-- ask Which class is correct for the following compound? O=C1c2cc(Cl)ccc2-c2c(O)cc(Cl)cc21
-- reply 2

-- ask Which category does the recorded growth put C=C[C@]1(C)C=C2C(=O)[C@@]3(O)OC(=O)[C@@]4(CCCC(C)(C)[C@H]34)[C@@]2(O)CC1 in?
-- reply 1

-- ask Which class does CC(=O)OC1Oc2ccccc2-c2oc(=O)c(-c3ccc(F)cc3)cc21 (stereo not drawn) fall in?
-- reply 2

-- ask Band for the recorded growth of Cc1cc(Cl)ccc1Nc1nc(C(F)(F)F)ccc1C(=O)N/N=C/c1ccccc1Cl ?
-- reply 1

-- ask Please classify: O=C1/C(=C/c2ccc(O)cc2)CSc2ccc(Cl)cc21
-- reply 3

-- ask Please classify: CCN1CCOC1C(C)C (stereo not drawn)
-- reply 3

-- ask Which bin, given its growth, does O=C1CC(c2cccc(-c3cccnc3)c2)=Nc2ccc(Br)cc2N1 occupy?
-- reply 2

-- ask The entry to classify is Nc1cc(O)cc(O)c1 ; which class holds it?
-- reply 3

-- ask In plain terms, what class is O=C/C=C/c1ccc([N+](=O)[O-])cc1Cl ?
-- reply 3

-- ask Looking at CCCCCCN=C(N)CCCCCCCCCCC(N)=NCCCCCC , which class would you pick?
-- reply 1

-- ask Bin? CN1CCN(c2nc(-c3cccnc3)nc3sc4c(c23)CCCCCC4)CC1
-- reply 2

-- ask Please report the category associated with Oc1cc(O)c(Br)cc1Br , nothing else.
-- reply 3

-- ask Sort into band: Cc1nc(Nc2nc3ccccc3o2)nc(-c2cccc([N+](=O)[O-])c2)c1C(=O)Nc1ccc(F)c(Cl)c1
-- reply 1

-- ask Please report the category associated with COc1cc(/C=C/C(=O)c2cc(-c3ccc(F)cc3)ccc2O)cc(OC)c1OC , nothing else.
-- reply 2

====

# Tested on: HCT-15 colon
# EXPERIMENT: NCI-60 one-dose screen, 48 h
# PROTOCOL CONDITIONS: 10 µM
Compounds without any hit were thinned out: in the full panel of roughly 83,000, 20% have a hit. The source made the active and inactive calls. How the source made its calls: active means growth percent below 10; inactive means the rest.
Response enum: TRUE for active, FALSE for inactive

A selection of reference data follows.
CC(=O)n1nc(C(=O)OC(C)(C)C)c2cc(F)c(F)cc21; FALSE
COc1cc(C2C=C(c3ccc(Cl)c(Cl)c3)N=C3SC(C)=CN32)cc(OC)c1OC (configuration not stated); FALSE
Brc1ccc(-c2cn3ccnc3c(-c3ccc(Br)cc3)n2)cc1; FALSE
CC(=O)/C(=C\c1ccc(Cl)cc1)c1ccccc1; FALSE

-- ask Look up the recorded call for CC(=O)c1c(O)cc2c3c1OC(C)(C)C1CCC(C)(CC31)O2 (configuration not stated) in this test.
-- reply FALSE

====

# Tested on: UO-31 renal
# EXPERIMENT: NCI-60 one-dose screen, 48 h
# PROTOCOL CONDITIONS: 10 µM
The panel holds about 83,000 compounds, 20% with a hit somewhere; the sample as a whole holds those more often. Active and inactive are the calls of the source. Rule for the calls: active = growth percent below 10; inactive = the rest.
Answer with one of the outcomes given here: TRUE = active, FALSE = inactive

Worked set:
O=C(Nc1cccc(Cl)c1)Nc1cc2ncncc2cc1OCc1cccc(F)c1; TRUE
CC(C)C[C@H](NC(=O)CCn1ccc2ccccc2c1=O)B(O)O; FALSE
O=C(Cn1ccc(=O)[nH]c1=O)c1ccc([N+](=O)[O-])o1; FALSE

-- ask For O=c1c2cccc3c(Nc4ccc(Br)cn4)ccc(c32)c2nc3ccccc3n12 , which call appears in the assay record?
-- reply FALSE

-- ask Which outcome was entered for the molecule CCOC(=O)c1cc2c(n1Cc1cc(OC)cc(OC)c1)-c1oncc1CC2 in this test?
-- reply FALSE

====

# System: COLO 205 colon
# EXPERIMENT: NCI-60 one-dose screen, 48 h (100 = growth as untreated, 0 = no growth, -100 = all killed)
# PROTOCOL CONDITIONS: 10 µM
This is part of a sample that, as a whole, favours compounds with a hit. Of some 83,000 tested, about 20% had one in any assay.
Let's look at some molecules and their measured growth.
Number in %, nothing else.

COc1cc(-c2nc(-c3nnc(-c4cccnc4)o3)c3ccccn23)cc(OC)c1OC; 119
Cc1ccccc1C1=N[C@@H](Cc2ccccc2)C(=O)c2c(nc3ccccn23)N1; 107
CCOC(=O)c1ccc(NC(=O)Nc2nncs2)cc1; -25.9
C/C(=N\NC(N)=S)C(C)(C)O; 119

-- ask Data request, read-out growth, for COc1ccc2nc(/C=C/c3ccc(N(C)C)cc3)sc2c1
-- reply 145

====

# Test system: SNB-19 CNS
# EXPERIMENT: NCI-60 one-dose screen, 48 h (100 = growth as untreated, 0 = no growth, -100 = all killed)
# PROTOCOL CONDITIONS: 10 µM
# Description: Growth inhibition of the SNB-19 human tumor cell line is measured as a screen for anti-cancer activity. Cells are grown in 96 well plates and exposed to the test compound for 48 hours. Compounds are tested at a single concentration, which is 10^-5 M for most compounds. The reported endpoint is percent growth (GI% or GIPRCNT), where numbers from 0 - 100% represent growth inhibition, and numbers from -100% - 0 represent cell death. For example, a value of 40 represents 60% growth inhibition. […]
This is part of a sample that, as a whole, favours compounds with a hit. Of some 83,000 tested, about 20% had one in any assay. Calls of active or inactive are those of the source. How the source made its calls: active means growth percent below 10; inactive means the rest.
Each entry below lists one item and its recorded growth value.

For orientation, consider the following solved cases.
CC1(C)CNC(=O)N1; 103% (inactive)
CCCCCc1cc[n+](CC(=O)c2ccc(Cl)cc2)cc1; 96.7% (inactive)
COc1cc(C2C(C#N)=C(c3c[nH]c4ccccc34)Nc3nc(N)[nH]c(=O)c32)cc(OC)c1OC (stereo not given); 66.5% (inactive)
O=C1/C(=C/c2ccc(O)cc2O)N=C2SCCCN12; 97% (inactive)

Now turn to the next compound.
-- ask Which measured growth value corresponds to CCOC(=O)[C@@H]1[C@H](c2ccccc2)[C@H]([N+](=O)[O-])[C@H](c2cn(-c3ccccc3)nc2C)N1Cc1ccccc1 ?
-- reply 77.7% (inactive)

Where do the numbers come from? From PubChem BioAssay (NCI).
